# testName: Elimination rate constant in ICR mouse at 3 mg/kg, ip and measured up to 24 hrs by TQ-S triple quadrupole mass spectrometric method
# Assay type: ADME, organism-based
# testContext: in vivo
measure: k el at 24 h (s⁻¹)
Just the number please, in s⁻¹, no unit attached.

### Prompt I would be grateful if you could share the reported k el at 24 h for `CC(C)N1c2cc(Nc3nccc(-c4cncc5ccccc45)n3)ccc2N(C)C(=O)[C@H]1C` .
### Response 0.000403

* * *

# measuredTarget: Bromodomain-containing protein 4 (Homo sapiens)
# testName: Inhibition of His6-tagged BRD4 bromodomain 1 (unknown origin) expressed in Escherichia coli Bl21(DE3) cells incubated for 4 hrs by FP assay
Measured log10 IC50, listed per entry for reference.
Please keep in mind that the values are log10 of IC50 expressed in nM.

Example cases with answers are listed next.
CC(C)N1c2cc(Nc3nccc(-c4cccc5[nH]ccc45)n3)ccc2N(C)C(=O)[C@H]1C    2.46
CC(C)N1c2cc(Nc3nccc(-c4ccccc4N)n3)ccc2N(C)C(=O)[C@H]1C    2.40
Cc1cnc(Nc2ccc3c(c2)N(C(C)C)[C@H](C)C(=O)N3C)nc1-c1cncc2ccccc12    1.28

### Prompt Find log10 IC50 (Bromodomain-containing protein 4 (Homo sapiens)) for the entry `COc1ccccc1-c1ccnc(Nc2ccc3c(c2)N(C(C)C)[C@H](C)C(=O)N3C)n1`
### Response 2.68

### Prompt Find log10 IC50 (Bromodomain-containing protein 4 (Homo sapiens)) for the entry `Cc1cccc(-c2ccnc(Nc3ccc4c(c3)N(C(C)C)[C@H](C)C(=O)N4C)n2)c1`
### Response 2.88

### Prompt Find log10 IC50 (Bromodomain-containing protein 4 (Homo sapiens)) for the entry `CC(C)N1c2cc(Nc3nccc(-c4cccc5c4CCCN5)n3)ccc2N(C)C(=O)[C@H]1C`
### Response 1.43

### Prompt Find log10 IC50 (Bromodomain-containing protein 4 (Homo sapiens)) for the entry `COc1cccc(-c2ccnc(Nc3ccc4c(c3)N(C(C)C)[C@H](C)C(=O)N4C)n2)c1`
### Response 2.98

### Prompt Find log10 IC50 (Bromodomain-containing protein 4 (Homo sapiens)) for the entry `CC(C)N1c2cc(Nc3nccc(-c4cncc5ccccc45)n3)ccc2N(C)C(=O)[C@H]1C`
### Response 1.10

### Prompt Find log10 IC50 (Bromodomain-containing protein 4 (Homo sapiens)) for the entry `CC(C)N1c2cc(Nc3nccc(-c4ccccc4)n3)ccc2N(C)C(=O)[C@H]1C`
### Response 2.29

### Prompt Find log10 IC50 (Bromodomain-containing protein 4 (Homo sapiens)) for the entry `Cc1ccc(N)cc1-c1ccnc(Nc2ccc3c(c2)N(C(C)C)[C@H](C)C(=O)N3C)n1`
### Response 2.37

### Prompt Find log10 IC50 (Bromodomain-containing protein 4 (Homo sapiens)) for the entry `CC(C)N1c2cc(Nc3ncc(Cl)c(-c4cncc5ccccc45)n3)ccc2N(C)C(=O)[C@H]1C`
### Response 1.76

* * *

Measured IC50, listed per entry for reference.
# measuredTarget: Bromodomain-containing protein 4 (Homo sapiens, UniProt O60885)
# testName: Inhibition of His6-tagged BRD4 bromodomain 1 (unknown origin) expressed in Escherichia coli Bl21(DE3) cells incubated for 4 hrs by FP assay
Just the number please, in nM, no unit attached.

Example cases with answers are listed next.
COc1cc(F)ccc1-c1ccnc(Nc2ccc3c(c2)N(C(C)C)[C@H](C)C(=O)N3C)n1    497
COc1ccc(-c2ccnc(Nc3ccc4c(c3)N(C(C)C)[C@H](C)C(=O)N4C)n2)cc1    535
CC(C)Nc1cccc(-c2ccnc(Nc3ccc4c(c3)N(C(C)C)[C@H](C)C(=O)N4C)n2)c1    268
CC(C)N1c2cc(Nc3nccc(-c4cccc5nn(C)cc45)n3)ccc2N(C)C(=O)[C@H]1C    168
Cc1ccccc1-c1ccnc(Nc2ccc3c(c2)N(C(C)C)[C@H](C)C(=O)N3C)n1    271
CC(C)N1c2cc(Nc3cccc(-c4cccc(C#N)c4)c3)ccc2N(C)C(=O)[C@H]1C    666

### Prompt Find IC50 (Bromodomain-containing protein 4 (Homo sapiens, UniProt O60885)) for the entry `Cc1c(N)cccc1-c1ccnc(Nc2ccc3c(c2)N(C(C)C)[C@H](C)C(=O)N3C)n1`
### Response 115

### Prompt Find IC50 (Bromodomain-containing protein 4 (Homo sapiens, UniProt O60885)) for the entry `COc1ccccc1-c1cccc(Nc2ccc3c(c2)N(C(C)C)[C@H](C)C(=O)N3C)c1`
### Response 820

### Prompt Find IC50 (Bromodomain-containing protein 4 (Homo sapiens, UniProt O60885)) for the entry `CC(C)N1c2cc(Nc3nccc(-c4ccncc4)n3)ccc2N(C)C(=O)[C@H]1C`
### Response 83

### Prompt Find IC50 (Bromodomain-containing protein 4 (Homo sapiens, UniProt O60885)) for the entry `CC(C)N1c2cc(Nc3nccc(-c4c[nH]c5ccccc45)n3)ccc2N(C)C(=O)[C@H]1C`
### Response 329

### Prompt Find IC50 (Bromodomain-containing protein 4 (Homo sapiens, UniProt O60885)) for the entry `CCNc1cccc(-c2ccnc(Nc3ccc4c(c3)N(C(C)C)[C@H](C)C(=O)N4C)n2)c1`
### Response 319

### Prompt Find IC50 (Bromodomain-containing protein 4 (Homo sapiens, UniProt O60885)) for the entry `CC(C)N1c2cc(Nc3nccc(-c4cccc(N)c4)n3)ccc2N(C)C(=O)[C@H]1C`
### Response 120

### Prompt Find IC50 (Bromodomain-containing protein 4 (Homo sapiens, UniProt O60885)) for the entry `CC(C)N1c2cc(Nc3nccc(-c4ccnc5ccccc45)n3)ccc2N(C)C(=O)[C@H]1C`
### Response 25.3

### Prompt Find IC50 (Bromodomain-containing protein 4 (Homo sapiens, UniProt O60885)) for the entry `CC(C)N1c2cc(Nc3nccc(-c4cccc5ncccc45)n3)ccc2N(C)C(=O)[C@H]1C`
### Response 15.2

### Prompt Find IC50 (Bromodomain-containing protein 4 (Homo sapiens, UniProt O60885)) for the entry `CC(C)N1c2cc(Nc3cccc(-c4ccncc4)c3)ccc2N(C)C(=O)[C@H]1C`
### Response 77.3

### Prompt Find IC50 (Bromodomain-containing protein 4 (Homo sapiens, UniProt O60885)) for the entry `Cc1ccc(-c2ccnc(Nc3ccc4c(c3)N(C(C)C)[C@H](C)C(=O)N4C)n2)cc1`
### Response 5850

### Prompt Find IC50 (Bromodomain-containing protein 4 (Homo sapiens, UniProt O60885)) for the entry `Cc1cc(F)ccc1-c1ccnc(Nc2ccc3c(c2)N(C(C)C)[C@H](C)C(=O)N3C)n1`
### Response 156

### Prompt Find IC50 (Bromodomain-containing protein 4 (Homo sapiens, UniProt O60885)) for the entry `CC(C)N1c2cc(Nc3nccc(-c4cccc5cnccc45)n3)ccc2N(C)C(=O)[C@H]1C`
### Response 75.9
